System: MCF7 complex spheroid growth, % test/control
test method notes: Anticancer human tumor MCF7 cell line growth inhibition [Asc]; active = viability on the fitted dose curve at most 10% of control; inactive = the rest;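 note: spheroids exposed to compounds for 7 days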
condition notes: second compound 3.16 µM; first compound 10 µM
Outcome codes: active, inactive

molecule | assigned class
C=CC(=O)N1CCN(c2nc(=O)n(-c3c(C)ccnc3C(C)C)c3nc(-c4c(O)cccc4F)c(F)cc23)C(C)C1 (centres undefined) + Cc1c(S(C)(=O)=O)c(-c2cc(F)cc(N3CCN(c4ccc(NS(=O)(=O)c5ccc(NC(CCN6CCC(C(=O)OCCCP(=O)(O)O)CC6)CSc6ccccc6)c(S(=O)(=O)C(F)(F)F)c5)cc4)CC3)c2)c(-c2ccc(Cl)cc2)n1C(C)C | inactive
O=C(c1cc(Cc2n[nH]c(=O)c3ccccc23)ccc1F)N1CCN(C(=O)C2CC2)CC1 + Cc1c(S(C)(=O)=O)c(-c2cc(F)cc(N3CCN(c4ccc(NS(=O)(=O)c5ccc(NC(CCN6CCC(C(=O)OCCCP(=O)(O)O)CC6)CSc6ccccc6)c(S(=O)(=O)C(F)(F)F)c5)cc4)CC3)c2)c(-c2ccc(Cl)cc2)n1C(C)C | inactive
C=C(F)C(=O)N1CCN(c2nc(OCC3CCCN3C)nc3c2CCN(c2cccc4cccc(Cl)c24)C3)CC1CC#N (centres undefined) + Cc1c(S(C)(=O)=O)c(-c2cc(F)cc(N3CCN(c4ccc(NS(=O)(=O)c5ccc(NC(CCN6CCC(C(=O)OCCCP(=O)(O)O)CC6)CSc6ccccc6)c(S(=O)(=O)C(F)(F)F)c5)cc4)CC3)c2)c(-c2ccc(Cl)cc2)n1C(C)C | active
C#Cc1c(F)ccc2cc(O)cc(-c3ncc4c(N5CC6CCC(C5)N6)nc(OCC56CCCN5CC(F)C6)nc4c3F)c12 (centres undefined) + Cc1c(S(C)(=O)=O)c(-c2cc(F)cc(N3CCN(c4ccc(NS(=O)(=O)c5ccc(NC(CCN6CCC(C(=O)OCCCP(=O)(O)O)CC6)CSc6ccccc6)c(S(=O)(=O)C(F)(F)F)c5)cc4)CC3)c2)c(-c2ccc(Cl)cc2)n1C(C)C | inactive

* * *

System: MCF7 complex spheroid growth, % test/control
test method notes: Anticancer human tumor MCF7 cell line growth inhibition [Asc];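 note: spheroids exposed to compounds for 7 days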
condition notes: curve of first compound; second compound 0.1 µM
// values below are reported IC50

compound | uom | limit operator | IC50
Cn1ncnc1[C@H]1c2n[nH]c(=O)c3cc(F)cc(c23)N[C@@H]1c1ccc(F)cc1 + Cc1c(S(C)(=O)=O)c(-c2cc(F)cc(N3CCN(c4ccc(NS(=O)(=O)c5ccc(NC(CCN6CCC(C(=O)OCCCP(=O)(O)O)CC6)CSc6ccccc6)c(S(=O)(=O)C(F)(F)F)c5)cc4)CC3)c2)c(-c2ccc(Cl)cc2)n1C(C)C | nM | = | 44.3
NC1CCC(NC2CC2c2ccccc2)CC1 (configuration not stated) + Cc1c(S(C)(=O)=O)c(-c2cc(F)cc(N3CCN(c4ccc(NS(=O)(=O)c5ccc(NC(CCN6CCC(C(=O)OCCCP(=O)(O)O)CC6)CSc6ccccc6)c(S(=O)(=O)C(F)(F)F)c5)cc4)CC3)c2)c(-c2ccc(Cl)cc2)n1C(C)C | nM | > | 100

* * *

Recorded viability, T/C, one value per entry.
Tested on: MCF7 complex spheroid growth, % test/control
test method notes: Anticancer human tumor MCF7 cell line growth inhibition [Asc];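 note: spheroids exposed to compounds for 7 days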;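 for viability, T/C: 100% = DMSO vehicle control wells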
condition notes: second compound 0.1 µM; first compound 0.000316 µM; stronger effect = lower value
measured quantity: viability, T/C (%)

molecule | observed
Cn1ncnc1[C@H]1c2n[nH]c(=O)c3cc(F)cc(c23)N[C@@H]1c1ccc(F)cc1 + Cc1c(S(C)(=O)=O)c(-c2cc(F)cc(N3CCN(c4ccc(NS(=O)(=O)c5ccc(NC(CCN6CCC(C(=O)OCCCP(=O)(O)O)CC6)CSc6ccccc6)c(S(=O)(=O)C(F)(F)F)c5)cc4)CC3)c2)c(-c2ccc(Cl)cc2)n1C(C)C | 100
Cn1ncnc1[C@H]1c2n[nH]c(=O)c3cc(F)cc(c23)N[C@@H]1c1ccc(F)cc1 + CNC(C)C(=O)NC1CN(S(=O)(=O)c2cccc(S(=O)(=O)N3CCC4CCC(C(=O)NC(c5ccccc5)c5ccccc5)N4C(=O)C(NC(=O)C(C)NC)C3)c2)CCC2CCC(C(=O)NC(c3ccccc3)c3ccccc3)N2C1=O | 11.1
NC1CCC(NC2CC2c2ccccc2)CC1 (centres undefined) + Cc1c(S(C)(=O)=O)c(-c2cc(F)cc(N3CCN(c4ccc(NS(=O)(=O)c5ccc(NC(CCN6CCC(C(=O)OCCCP(=O)(O)O)CC6)CSc6ccccc6)c(S(=O)(=O)C(F)(F)F)c5)cc4)CC3)c2)c(-c2ccc(Cl)cc2)n1C(C)C | 96.7
NC1CCC(NC2CC2c2ccccc2)CC1 (centres undefined) + CNC(C)C(=O)NC1CN(S(=O)(=O)c2cccc(S(=O)(=O)N3CCC4CCC(C(=O)NC(c5ccccc5)c5ccccc5)N4C(=O)C(NC(=O)C(C)NC)C3)c2)CCC2CCC(C(=O)NC(c3ccccc3)c3ccccc3)N2C1=O | 13.9

* * *

System: MCF7 complex spheroid growth, % test/control
test method notes: Anticancer human tumor MCF7 cell line growth inhibition [Asc];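 note: spheroids exposed to compounds for 7 days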;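 for viability, T/C: 100% = DMSO vehicle control wells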
condition notes: second compound 0.316 µM; first compound 0.03 µM; stronger effect = lower value

molecule | viability, T/C, %
NC(=O)C(=Cn1cnc(-c2cc(C(F)(F)F)cc(C(F)(F)F)c2)n1)c1cncnc1 + CNC(C)C(=O)NC1CN(S(=O)(=O)c2cccc(S(=O)(=O)N3CCC4CCC(C(=O)NC(c5ccccc5)c5ccccc5)N4C(=O)C(NC(=O)C(C)NC)C3)c2)CCC2CCC(C(=O)NC(c3ccccc3)c3ccccc3)N2C1=O | 14.5
NC(=O)C(=Cn1cnc(-c2cc(C(F)(F)F)cc(C(F)(F)F)c2)n1)c1cncnc1 + Cc1c(S(C)(=O)=O)c(-c2cc(F)cc(N3CCN(c4ccc(NS(=O)(=O)c5ccc(NC(CCN6CCC(C(=O)OCCCP(=O)(O)O)CC6)CSc6ccccc6)c(S(=O)(=O)C(F)(F)F)c5)cc4)CC3)c2)c(-c2ccc(Cl)cc2)n1C(C)C | 60.9
Cc1nc(N2CCC3(CC2)COC(C)C3N)c(CO)nc1Sc1ccnc(N)c1Cl (stereo not drawn) + Cc1c(S(C)(=O)=O)c(-c2cc(F)cc(N3CCN(c4ccc(NS(=O)(=O)c5ccc(NC(CCN6CCC(C(=O)OCCCP(=O)(O)O)CC6)CSc6ccccc6)c(S(=O)(=O)C(F)(F)F)c5)cc4)CC3)c2)c(-c2ccc(Cl)cc2)n1C(C)C | 84.2

* * *

The molecules listed here are annotated with their viability, T/C.
System: MCF7 complex spheroid growth, % test/control
test method notes: Anticancer human tumor MCF7 cell line growth inhibition [Asc];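 note: spheroids exposed to compounds for 7 days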;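 for viability, T/C: 100% = DMSO vehicle control wells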
condition notes: second compound 0.0316 µM; first compound 3.16 µM; stronger effect = lower value
measured quantity: viability, T/C

molecule | observed
O=C(c1cc(Cc2n[nH]c(=O)c3ccccc23)ccc1F)N1CCN(C(=O)C2CC2)CC1 + Cc1c(S(C)(=O)=O)c(-c2cc(F)cc(N3CCN(c4ccc(NS(=O)(=O)c5ccc(NC(CCN6CCC(C(=O)OCCCP(=O)(O)O)CC6)CSc6ccccc6)c(S(=O)(=O)C(F)(F)F)c5)cc4)CC3)c2)c(-c2ccc(Cl)cc2)n1C(C)C | 80.5%
O=C(c1cc(Cc2n[nH]c(=O)c3ccccc23)ccc1F)N1CCN(C(=O)C2CC2)CC1 + CNC(C)C(=O)NC1CN(S(=O)(=O)c2cccc(S(=O)(=O)N3CCC4CCC(C(=O)NC(c5ccccc5)c5ccccc5)N4C(=O)C(NC(=O)C(C)NC)C3)c2)CCC2CCC(C(=O)NC(c3ccccc3)c3ccccc3)N2C1=O | 11.4%
C=CC(=O)N1CCN(c2nc(=O)n(-c3c(C)ccnc3C(C)C)c3nc(-c4c(O)cccc4F)c(F)cc23)C(C)C1 (stereo not drawn) + Cc1c(S(C)(=O)=O)c(-c2cc(F)cc(N3CCN(c4ccc(NS(=O)(=O)c5ccc(NC(CCN6CCC(C(=O)OCCCP(=O)(O)O)CC6)CSc6ccccc6)c(S(=O)(=O)C(F)(F)F)c5)cc4)CC3)c2)c(-c2ccc(Cl)cc2)n1C(C)C | 112%

* * *

System: MCF7 complex spheroid growth, % test/control
test method notes: Anticancer human tumor MCF7 cell line growth inhibition [Asc];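 note: spheroids exposed to compounds for 7 days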
condition notes: curve of first compound; second compound 0.1 µM
pIC50: −log10 of the molar value.
Overview of recorded pIC50 for various molecules

molecule | pIC50
C=CC(=O)N1CCN(c2nc(=O)n(-c3c(C)ccnc3C(C)C)c3nc(-c4c(O)cccc4F)c(F)cc23)C(C)C1 (configuration not stated) + CNC(C)C(=O)NC1CN(S(=O)(=O)c2cccc(S(=O)(=O)N3CCC4CCC(C(=O)NC(c5ccccc5)c5ccccc5)N4C(=O)C(NC(=O)C(C)NC)C3)c2)CCC2CCC(C(=O)NC(c3ccccc3)c3ccccc3)N2C1=O | > 7.50
COc1c(OCCCN2CCOCC2)ccc2c3n(c(=NC(=O)c4cnc(N)nc4)nc12)CCN3 + CNC(C)C(=O)NC1CN(S(=O)(=O)c2cccc(S(=O)(=O)N3CCC4CCC(C(=O)NC(c5ccccc5)c5ccccc5)N4C(=O)C(NC(=O)C(C)NC)C3)c2)CCC2CCC(C(=O)NC(c3ccccc3)c3ccccc3)N2C1=O | > 8.50
